Biological target: menin/MLL (terbium chelate-labeled menin, FITC-MBM1 peptide) (Homo sapiens, UniProt O00255, T541A)
Construct: Menin (a.a 1-610-6xhis tag)
Sequence (O00255 with tags, fused parts or gaps T541A): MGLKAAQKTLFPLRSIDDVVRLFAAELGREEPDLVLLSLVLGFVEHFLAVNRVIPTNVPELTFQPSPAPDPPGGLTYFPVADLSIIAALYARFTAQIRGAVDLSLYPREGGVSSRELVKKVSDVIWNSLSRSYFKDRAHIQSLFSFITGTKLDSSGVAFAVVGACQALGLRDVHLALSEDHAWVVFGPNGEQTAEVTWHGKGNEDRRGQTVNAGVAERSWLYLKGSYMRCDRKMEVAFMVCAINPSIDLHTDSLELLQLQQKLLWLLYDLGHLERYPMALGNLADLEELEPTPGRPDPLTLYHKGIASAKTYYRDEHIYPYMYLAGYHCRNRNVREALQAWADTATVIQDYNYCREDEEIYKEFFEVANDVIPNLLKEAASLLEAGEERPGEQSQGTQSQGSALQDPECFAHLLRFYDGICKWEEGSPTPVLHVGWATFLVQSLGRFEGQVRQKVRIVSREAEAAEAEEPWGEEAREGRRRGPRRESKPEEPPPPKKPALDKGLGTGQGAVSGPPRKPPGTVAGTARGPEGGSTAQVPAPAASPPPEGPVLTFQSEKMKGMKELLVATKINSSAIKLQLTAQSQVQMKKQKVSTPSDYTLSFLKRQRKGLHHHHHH
Assay: Menin/MLL homogenous time-resolved fluorescence (HTRF) assay
Conditions: 30 min incubation
Method: 1) Menin/MLL Homogenous Time-Resolved Fluorescence (HTRF) Assay […] Compound potencies were determined by first calculating % inhibition at each compound concentration according to equation 1: […] Where LC and HC are the HTRF values of the assay in the presence or absence of a saturating concentration of a compound that competes with FITC-MBM1 for binding to menin, and HTRF^compound is the measured HTRF value in the presence of the test compound. […]
pIC50: −log10 of the molar value.
measurement.kind: pIC50

Example cases with answers are listed next.
C[C@@H]([C@H]1C[C@@H](NC(=O)OC(C)(C)C)C1)N1CC2(CCN(c3ncnnc3Oc3ccc(F)cc3-c3cncnc3C3CC3)C2)C1 [Compound 512b] | 9.23
CC(C)[C@H]([C@H]1C[C@@H](NC(=O)C2CC2)C1)N1CC2(CCN(c3ncnnc3Oc3ccc(F)cc3-c3cncnc3C3CC3)C2)C1 (single isomer, unassigned) | 9.52
CC(=O)N[C@H]1C[C@@H](C(C(C)C)N2CC3(CCN(c4ncnnc4Oc4ccc(F)cc4-c4ncncc4C4CC4)C3)C2)C1 (stereo partly shown) | 9.40
CO[C@H]1CCN(C2CC(C(C(C)C)N3CC4(CCN(c5ncnnc5Oc5ccc(F)cc5-c5nnc(C)cc5C5CC5)C4)C3)C2)C1 (single isomer, unassigned) | 9.04
CC(C)[C@@H]([C@H]1C[C@@H](N2CCC3(CCO3)C2)C1)N1CC2(CCN(c3ncnnc3Oc3ccc(F)cc3-c3nnccc3C3CC3)C2)C1 (single isomer, unassigned) | 10.00
CC(C)C([C@H]1C[C@@H](N2CC(O)C2)C1)N1CC2(CCN(c3ncnnc3Oc3ccc(F)cc3-c3cncnc3C3CC3)C2)C1 (stereo partly shown) | 10.00
CC(C)[C@H]([C@H]1C[C@H](N2CC3(CCO3)C2)C1)N1CC2(CCN(c3ncnnc3Oc3ccc(F)cc3-c3cncnc3C3CC3)C2)C1 (single isomer, unassigned) | 9.70

I = CC(C)[C@@H]([C@H]1C[C@@H](N2CCN(C(=O)N(C)C)CC2)C1)N1CC2(CCN(c3ncnnc3Oc3ccc(F)cc3-c3cccnc3C3CC3)C2)C1 (single isomer, unassigned)
II = CNC(=O)c1cc(N[C@H]2C[C@@H]([C@@H](C(C)C)N3CC4(CCN(c5ncnnc5Oc5ccc(F)cc5-c5cncnc5C5CC5)C4)C3)C2)cnn1 (single isomer, unassigned)
III = CC(C)[C@H]([C@H]1C[C@]2(COC(=O)N2)C1)N1CC2(CCN(c3ncnnc3Oc3ccc(F)cc3-c3ncccc3C3CC3)C2)C1 (single isomer, unassigned)
Ascending by pIC50, please. Please respond with the labels ordered as the question requires. III, II, I

----------
test system: MOLM14 cells; experiment: Proliferation assay, spheroid-like growth, MOLM14 (MLL-AF9 rearranged); assay type: cell-based, human; conditions: Homo sapiens, MOLM-14, 192 h, 8 days, confluence as measure of spheroid size, read-out: spheroid assay_OneTime MOLM14 IC50
measurement.kind: IC50 (nM)

a = CNC(=O)c1csc(N[C@H]2C[C@@H]([C@@H](C(C)C)N3CC4(CCN(c5ncnnc5Oc5ccc(F)cc5-c5cncnc5C5CC5)C4)C3)C2)n1 (single isomer, unassigned) [Compound 453]
b = CC(=O)N[C@H]1C[C@@H]([C@@H](C(C)C)N2CC3(CCN(c4ncnnc4Oc4ccc(F)cc4-c4cncnc4C4CC4)C3)C2)C1 (single isomer, unassigned) [Compound 2a]
c = CC(=O)N1CCN([C@H]2C[C@@H]([C@@H](C(C)C)N3CC4(CCN(c5ncnnc5Oc5ccc(F)cc5-c5cncnc5C5CC5)C4)C3)C2)CC1 (single isomer, unassigned) [Compound 34]
d = CC(C)[C@H]([C@H]1C[C@@H](N2CCC(C)(C(=O)N(C)C)C2)C1)N1CC2(CCN(c3ncnnc3Oc3ccc(F)cc3-c3cncnc3C3CC3)C2)C1 (stereo partly shown) [Compound 161]
Highest to lowest IC50: rank the entries shown above. Please respond with the labels ordered as the question requires. c, b, a, d

I = CC(C)[C@H]([C@H]1C[C@@H](N(C)CCCS(C)(=O)=O)C1)N1CC2(CCN(c3ncnnc3Oc3ccc(F)cc3-c3cncnc3C3CC3)C2)C1 (single isomer, unassigned) [Compound 242]
II = CC(=O)N1CC2(C1)CN([C@H]1C[C@@H]([C@@H](C(C)C)N3CC4(CCN(c5ncnnc5Oc5ccc(F)cc5-c5cncnc5C5CC5)C4)C3)C1)C2 (single isomer, unassigned) [Compound 170]
Of I and II , which carries the smaller reported IC50 figure? Please indicate the selected item by its label. II
(II: 5 nM, I: 8 nM)

----------
target: menin/MLL (terbium chelate-labeled menin, FITC-MBM1 peptide) (Homo sapiens, UniProt O00255, T541A); construct: Menin (a.a 1-610-6xhis tag); experiment: Menin/MLL homogenous time-resolved fluorescence (HTRF) assay; conditions: 30 min incubation
measurement.kind: IC50 (nM)

Example cases with answers are listed next.
CC(C)[C@@H]([C@H]1C[C@]2(COC(=O)N2)C1)N1CC2(CCN(c3ncnnc3Oc3ccc(F)cc3-c3cnncc3C3CC3)C2)C1 (single isomer, unassigned) | 0.2
CC(C)[C@H]([C@H]1C[C@@H](NC(=O)C2CC2)C1)N1CC2(CCN(c3ncnnc3Oc3ccc(F)cc3-c3ncccc3C3CC3)C2)C1 (single isomer, unassigned) | 0.1
CC(C)[C@@H]([C@H]1C[C@@H](N2CC3(COC3)C2)C1)N1CC2(CCN(c3ncnnc3Oc3ccc(F)cc3-c3cnncc3C3CC3)C2)C1 (single isomer, unassigned) | 0.1
CC(=O)N1CCN([C@H]2C[C@@H](C(C(C)C)N3CC4(CCN(c5ncnnc5Oc5ccc(F)cc5-c5cnc(C#N)nc5C5CC5)C4)C3)C2)CC1 (stereo partly shown) | 0.5
CC(C)[C@@H]([C@H]1C[C@H](N2CCC2)C1)N1CC2(CCN(c3ncnnc3Oc3ccc(F)cc3-c3cncnc3C3CC3)C2)C1 (single isomer, unassigned) | 2.3

P = CC(C)[C@H](C1CCN(CC2COC2)CC1)N1CC2(CCN(c3ncnnc3Oc3ccc(F)cc3-c3cnc(C#N)nc3C3CC3)C2)C1 (single isomer, unassigned)
Q = CC(C)[C@H]([C@H]1C[C@@H](N2CCNC(=O)C2)C1)N1CC2(CCN(c3ncnnc3Oc3ccc(F)cc3-c3cncnc3C3CC3)C2)C1 (single isomer, unassigned)
Please state the entry with greater IC50 among P and Q . Please indicate the selected item by its label. Q

----------
test system: MOLM14 cells; test: Proliferation assay, spheroid-like growth, MOLM14 (MLL-AF9 rearranged); type: cell-based, human; settings: Homo sapiens, MOLM-14, 192 h, 8 days, confluence as measure of spheroid size, read-out: spheroid assay_OneTime MOLM14 IC50
measurement.kind: IC50 (nM)

Example cases with answers are listed next.
CC(=O)N1CC2(C1)CN([C@H]1C[C@@H]([C@H](C(C)C)N3CC4(CCN(c5ncnnc5Oc5ccc(F)cc5-c5cnc(C)cc5C5CC5)C4)C3)C1)C2 (single isomer, unassigned) | 3
CC(C)C([C@H]1C[C@H](N2CCC(F)(F)CC2)C1)N1CC2(CCN(c3ncnnc3Oc3ccc(F)cc3-c3cncnc3C3CC3)C2)C1 (some centres unmarked) | 450
CC(C)[C@H]([C@H]1C[C@@H](Nc2ccnc(N)n2)C1)N1CC2(CCN(c3ncnnc3Oc3ccc(F)cc3-c3cncnc3C3CC3)C2)C1 (single isomer, unassigned) | 29

P = CC(C)[C@H]([C@H]1C[C@@H](N2CCC(S(C)(=O)=O)CC2)C1)N1CC2(CCN(c3ncnnc3Oc3ccc(F)cc3-c3cncnc3C3CC3)C2)C1 (single isomer, unassigned)
Q = CO[C@H]1[C@@H]2CN([C@H]3C[C@H]([C@H](C(C)C)N4CC5(CCN(c6ncnnc6Oc6ccc(F)cc6-c6cnncc6C6CC6)C5)C4)C3)C[C@@H]21 (single isomer, unassigned) [Compound 282b]
Please state the entry with greater IC50 among P and Q . Please indicate the selected item by its label. Q

----------
Tested on: KO-52 cells
Test: Proliferation assay, spheroid-like growth, KO-52 (MLL wildtype control cell line)
Format: cell-based, human
Settings: Homo sapiens, 192 h, KO-52 control cells, 8 days, confluence as measure of spheroid size; read-out: spheroid assay_OneTime KO-52 IC50
Protocol: The anti-proliferative effect of menin/MLL protein/protein interaction inhibitor test compounds was assessed in human leukemia cell lines. […] In order to assess the anti-proliferative effects, 200 MOLM14 cells, or 300 KO-52 cells were seeded in 200 μl media per well in 96-well round bottom, ultra-low attachment plates (Costar, catalogue number 7007). […] Spheroid like growth was measured in real-time by live-cell imaging (IncuCyteZOOM, Essenbio, 4× objective) acquiring images at day 8. […]
measurement.kind: IC50 (µM)
The response must be a number in µM with no trailing unit.

Example cases with answers are listed next.
CC(C)[C@H]([C@H]1C[C@@H](N2CC[C@H](S(C)(=O)=O)C2)C1)N1CC2(CCN(c3ncnnc3Oc3ccc(F)cc3-c3ncccc3C3CC3)C2)C1 (single isomer, unassigned) | 12.2
CC(C)[C@H]([C@H]1C[C@@H](NC(=O)C2CC2)C1)N1CC2(CCN(c3ncnnc3Oc3ccc(F)cc3-c3ncccc3C3CC3)C2)C1 (single isomer, unassigned) | 5.56
CC(C)[C@H]([C@H]1C[C@H](N2CC(O)C3(CCC3)C2)C1)N1CC2(CCN(c3ncnnc3Oc3ccc(F)cc3-c3cncnc3C3CC3)C2)C1 (mixture of isomers) | 3.91
COC1(C)CN([C@H]2C[C@H]([C@H](C(C)C)N3CC4(CCN(c5ncnnc5Oc5ccc(F)cc5-c5nnccc5C5CC5)C4)C3)C2)C1 (single isomer, unassigned) | 14.4
CC(=O)N[C@H]1C[C@@H]([C@@H](C(C)C)N2CC3(CCN(c4ncnnc4Oc4ccc(F)cc4-c4ncncc4C4CC4)C3)C2)C1 (single isomer, unassigned) | 10.1

Report IC50 for CC(C)[C@H]([C@H]1C[C@@H](NC(=O)C2CC2)C1)N1CC2(CCN(c3ncnnc3Oc3ccc(F)cc3-n3ncnc3C3CC3)C2)C1 (single isomer, unassigned) please. 4.57
